# Tested on: LIM 1215 cells
# ASSAY_SUMMARY: Marker protein expression, ACAS confocal image cytometer
# Assay type: cell-based, human
# Set-up: key: CEA / Marker Protein Expression: Integrin β4 / Marker Protein Expression: Villin: increased expression (+); down-regulated (-); unchanged (0)
READOUT: Marker Protein Expression: Villin

{"columns": ["SUBSTANCE", "READOUT", "MEASURED_RESULT"],
 "data": [
  ["EGF-α: comparison 52-residue peptide SHLVK-(A)-TENVPMK; EGF-like domain (residues 177-228) of NDF/heregulin α2 (SHLVKCAEKEKTFCVNGGECFMVKDLSNPSRYLCKCQPGFTGARCTENVPMK) [reference compound]", "Marker Protein Expression: Villin", 0],
  ["EGF-β/α: comparison chimeric 52-residue peptide SHLVK-(B)-TENVPMK; β177-221/α222-228 of extracellular NDF/heregulin (SHLVKCAEKEKTFCVNGGECFMVKDLSNPSRYLCKCPNEFTGDRCTENVPMK) [reference compound]", "Marker Protein Expression: Villin", 0]
]}
